Measurement Protocol: xn = mol fraction of the nth substance listed
Measurement Setup: 313.15 K; 101 kPa; Liquid; Direct current cell with electrodes; x1 = 0.34
Value Kind: log10(electrical conductivity) (log10 of the value in S/m)
Use the decimal logarithm of electrical conductivity (S/m).

Compound	Value Observed
CCN(CC)CCO.Cl [2-(diethylamino)ethanol hydrochloride] + OCC(O)CO	-0.68
C[P+](c1ccccc1)(c1ccccc1)c1ccccc1.[Br-] [methyltriphenylphosphonium bromide] + OCC(O)CO	-1.56
C[N+](C)(C)CCO.[Cl-] [choline chloride] + OCCO	0.13
C[N+](C)(C)CCO.[Cl-] [choline chloride] + OCC(O)CO	-0.52

Now consider the entry below.
Incoming: Which log10(electrical conductivity) value belongs to CCN(CC)CCO.Cl [2-(diethylamino)ethanol hydrochloride] + OCCO ?
Outgoing: -0.03

* * *

Measurement Protocol: xn = mol fraction of the nth substance listed
Measurement Setup: 318.15 K; 101 kPa; Liquid; Direct current cell with electrodes; x1 = 0.25
Value Kind: electrical conductivity (S/m)
Give just the numeric value; S/m need not be written.

Worked examples, 4 compounds total:
Compound	Value Observed
C[N+](C)(C)CCO.[Cl-] [choline chloride] + OCC(O)CO	0.311
C[P+](c1ccccc1)(c1ccccc1)c1ccccc1.[Br-] [methyltriphenylphosphonium bromide] + OCC(O)CO	0.0549
CCN(CC)CCO.Cl [2-(diethylamino)ethanol hydrochloride] + OCCO	1.13
C[P+](c1ccccc1)(c1ccccc1)c1ccccc1.[Br-] [methyltriphenylphosphonium bromide] + OCCO	0.296

Incoming: Give its electrical conductivity value. Item: CCN(CC)CCO.Cl [2-(diethylamino)ethanol hydrochloride] + OCC(O)CO
Outgoing: 0.211

* * *

Measurement Protocol: xn = mol fraction of the nth substance listed
Measurement Setup: 298.15 K; 101 kPa; Liquid; Direct current cell with electrodes; x1 = 0.2
Item-by-item account of electrical conductivity
# value in S/m; strip the unit string

Example compounds with recorded electrical conductivity:
Compound	Value Kind	Uom	Value Observed
C[P+](c1ccccc1)(c1ccccc1)c1ccccc1.[Br-] [methyltriphenylphosphonium bromide] + OCC(O)CO	electrical conductivity	S/m	0.0116
C[P+](c1ccccc1)(c1ccccc1)c1ccccc1.[Br-] [methyltriphenylphosphonium bromide] + OCCO	electrical conductivity	S/m	0.156

Incoming: Consider the compound CCN(CC)CCO.Cl [2-(diethylamino)ethanol hydrochloride] + OCC(O)CO and give its measured electrical conductivity.
Outgoing: 0.0487

Incoming: // returns reported electrical conductivity for input CCN(CC)CCO.Cl [2-(diethylamino)ethanol hydrochloride] + OCCO
Outgoing: 0.566

* * *

Measurement Protocol: xn = mol fraction of the nth substance listed
Measurement Setup: 348.15 K; 101 kPa; Liquid; Direct current cell with electrodes; x1 = 0.25
Reported electrical conductivity values follow for various molecules
Give the number; S/m is assumed, so skip it.

Molecule	Uom	Value Observed
C[N+](C)(C)CCO.[Cl-] [choline chloride] + OCC(O)CO	S/m	0.929

Incoming: Please report the recorded electrical conductivity for CCN(CC)CCO.Cl [2-(diethylamino)ethanol hydrochloride] + OCC(O)CO .
Outgoing: 0.647

Incoming: Which value of electrical conductivity has been reported for C[P+](c1ccccc1)(c1ccccc1)c1ccccc1.[Br-] [methyltriphenylphosphonium bromide] + OCCO in the records?
Outgoing: 0.737

Incoming: Any idea what its electrical conductivity is? The molecule is C[P+](c1ccccc1)(c1ccccc1)c1ccccc1.[Br-] [methyltriphenylphosphonium bromide] + OCC(O)CO
Outgoing: 0.22

Incoming: What electrical conductivity value was documented for this molecule, CCN(CC)CCO.Cl [2-(diethylamino)ethanol hydrochloride] + OCCO ?
Outgoing: 2.19
